test system: KG-1; assay: Cellular Proliferation Assay (Cell Counting Kit-8), KG-1; type: cell-based; conditions: Homo sapiens; KG-1 cells, 72 hours; read-out: KG1 IC50
parameter: IC50 (nM)
Quick note: give the figure in nM, leave out the unit.

The examples below pair each entry with its known result.
[[record]]
substance_smiles = "CNC(=O)c1cc(COc2cnc(Nc3cccc(OC)c3)nc2)c(F)c(OC)c1"
parameter = "IC50"
readout_unit = "nM"
recorded_value = 59

[[record]]
substance_smiles = "CCOc1cc(CCc2cnc(Nc3ccc(N4CCN(CC)CC4)cc3)nc2)cc(C(=O)NOC)c1"
parameter = "IC50"
readout_unit = "nM"
recorded_value = 387

[[record]]
substance_smiles = "CNC(=O)c1cc(C#Cc2cnc(Nc3ccc(N4C[C@@H](C)N[C@@H](C)C4)c(OC)c3)nc2)c(F)c(OC)c1"
parameter = "IC50"
readout_unit = "nM"
recorded_value = 100

[[record]]
substance_smiles = "C#Cc1ccc(Nc2ncc(OCc3cc(C(=O)NC)cc(OC)c3F)cn2)cn1"
parameter = "IC50"
readout_unit = "nM"
recorded_value = 103


query: Report measured IC50; entry is CCN(CC)CCn1cc(Nc2ncc(OCc3c(F)c(OC)cc(C(=O)NC)c3F)cn2)cn1
result: 31

query: Report measured IC50; entry is CCN1CCN(c2ccc(Nc3ccc(CCc4cc(OC)cc(C(=O)NOC)c4)cn3)cc2)CC1
result: 70

Values from patent US9701680B2
